// reported fold difference in affinity vs parental per item
# TESTED SYSTEM: T1, IL-1beta (UniProt P01584 117-269)
# T1 construct: also called IL-1β
# RUN DESCRIPTION: Biacore
Response body: numeric value in fold, unit text excluded.

Examples with answers:
Value of fold difference in affinity vs parental reported for the binder XPA23 Fab, heavy chain Y101N (Fab, V domains shown) VH: EVQLLESGGGLVQPGGSLRLSCAASGFTFSKYFMFWVRQAPGKGLEWVSVISPSGGMTRYADSVKGRFTISRDNSKNTLYLQMNSLRAEDTAVYYCARVGNGGNSDYWGQGTLVTVSS VL: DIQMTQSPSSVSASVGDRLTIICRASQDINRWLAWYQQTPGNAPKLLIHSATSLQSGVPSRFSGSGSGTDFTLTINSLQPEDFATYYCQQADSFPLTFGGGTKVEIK is 0.06

Recorded fold difference in affinity vs parental (binder XPA23 Fab, heavy chain M57S (Fab, V domains shown) VH: EVQLLESGGGLVQPGGSLRLSCAASGFTFSKYFMFWVRQAPGKGLEWVSVISPSGGSTRYADSVKGRFTISRDNSKNTLYLQMNSLRAEDTAVYYCARVGYGGNSDYWGQGTLVTVSS VL: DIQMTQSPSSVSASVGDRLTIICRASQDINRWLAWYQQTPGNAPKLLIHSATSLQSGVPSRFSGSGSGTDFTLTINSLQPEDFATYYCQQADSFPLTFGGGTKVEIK ): 0.04

# ---- query binder ----
Entry XPA23 Fab, heavy chain M57R (Fab, V domains shown) VH: EVQLLESGGGLVQPGGSLRLSCAASGFTFSKYFMFWVRQAPGKGLEWVSVISPSGGRTRYADSVKGRFTISRDNSKNTLYLQMNSLRAEDTAVYYCARVGYGGNSDYWGQGTLVTVSS VL: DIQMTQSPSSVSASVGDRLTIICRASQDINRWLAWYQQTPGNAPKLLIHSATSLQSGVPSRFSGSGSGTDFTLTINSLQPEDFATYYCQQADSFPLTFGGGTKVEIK ; fold difference in affinity vs parental = 0.06
